Source: the EternaBench riboswitch data

Reported apparent Kd is given for each of the following sequences.
# System: MS2 coat protein
# Assay name: apparent Kd, MS2 coat protein; higher = weaker binding; RNA-MaP array; FMN 200 µM where present
# Measurement setup: ligand present: flavin mononucleotide; designed as: ON switch for flavin mononucleotide
Kindly provide the numeric value in nM only, without the unit symbol.

Completed entries (count: 6):
Chain | Tested target | Units text | Observed value
AAGCGAAAGCUAAAAUAUCUAUCAGAGGAUAUUUAUGAUACAUGAGGAUCACCCAUGUAGCGCUGGGAGAAGGCUGAUAGAUAA | MS2 coat protein | nM | 4.98
UUGGACGUCGUAGGAUAUGUAGGAUAUUCCUACAUGAGGAUCACCCAUGUUGACAUGGAAGAAGGACAGAAGGAUGAUGUCCAU | MS2 coat protein | nM | 5.34
GAAUUCGCAUGAGGAUAUGCACUCAUUUCAUGUGCAGAAGGUAUUUCAUUAGACAUGAGGAUCACCCAUGUAUUGGUCACUAAC | MS2 coat protein | nM | 16.6
UUGGACGUCGUAGGAUAUGCAGGAUAUUCCUACAUGAGGAUCACCCAUGUUGACAUGGAAGAAGGACAGAAGGACGAUGUCCAU | MS2 coat protein | nM | 5.38
UCCACUACUGAGAAGGGAUACAUAUAAUUCUAGUCAGGAUAUCGAUACAGUGCAGCAUGAGGACAUGAGGAUCACCCAUGUAUU | MS2 coat protein | nM | 16
GUAACAUGAGGAUCACCCAUGUCGUGCUAGAUGAGUUCUGGUGAGGAUAUACAUGGUAAAUAACUGUAGAAGGCGCUGGGUACA | MS2 coat protein | nM | 105

Now examine the next entry.
QUERY: # get_value(readout= apparent Kd, system= MS2 coat protein) for ACAUGAGGAUCACCCAUGUUCACAUAGGAUAUUGAUUUUAUUGGUUUUAGAAUAGUAAUUAAACUCAAGAAGGAUGCCAGUUGU
RESULT: 8.78
